# reported IC50; entries follow
Experiment Description: Cytotoxicity against human MNT1 cells

Past entries and their recorded results:
- Molecule: "O=C1/C(=C/c2ccc(=O)n(O)c2)Oc2cc(O)ccc21"
  Result: "> 500 µM"
- Molecule: "O=C1/C(=C/c2ccc(=O)n(O)c2)Oc2cc(O)cc(O)c21"
  Result: "> 500 µM"
- Molecule: "O=C1/C(=C/c2ccc(=O)n(O)c2)Oc2cccc(O)c21"
  Result: "80 µM"

Proceeding to the next molecule to report its IC50.
Please look up its IC50: O=c1cc(CO)occ1O [KOJIC ACID]
> 80000 µM

---

Measurement Target: Tyrosinase (Homo sapiens)
Sequence (P14679 whole entry): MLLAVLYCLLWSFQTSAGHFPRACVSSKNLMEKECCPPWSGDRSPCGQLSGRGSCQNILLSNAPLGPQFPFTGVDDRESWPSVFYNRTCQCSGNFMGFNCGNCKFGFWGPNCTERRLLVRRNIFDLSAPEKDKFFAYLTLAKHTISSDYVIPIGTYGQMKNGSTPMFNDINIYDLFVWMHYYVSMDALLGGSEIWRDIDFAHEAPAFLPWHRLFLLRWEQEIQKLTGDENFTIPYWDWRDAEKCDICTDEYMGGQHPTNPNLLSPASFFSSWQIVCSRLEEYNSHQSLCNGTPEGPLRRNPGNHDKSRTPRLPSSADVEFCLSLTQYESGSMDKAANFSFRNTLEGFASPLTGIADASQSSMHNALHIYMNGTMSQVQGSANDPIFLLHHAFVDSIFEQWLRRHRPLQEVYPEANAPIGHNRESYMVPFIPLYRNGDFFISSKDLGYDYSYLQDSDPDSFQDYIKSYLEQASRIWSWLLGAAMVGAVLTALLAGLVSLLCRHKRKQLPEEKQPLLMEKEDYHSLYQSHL
Experiment Description: Inhibition of tyrosinase in human MNT1 cells assessed as suppression of melanin biosynthesis measured after 96 hrs
Format: cell-based
Recorded pIC50, one value per entry.
Quick note: pIC50 values are minus log10 of concentrations in mol/L.

Here's what some known entries look like.
- Chem Smiles: "O=C1/C(=C/c2ccc(=O)n(O)c2)Oc2cccc(O)c21"
  Measurement Target: "Tyrosinase (Homo sapiens)"
  pIC50: 3.92
- Chem Smiles: "O=C1/C(=C/c2ccc(=O)n(O)c2)Oc2cc(O)ccc21"
  Measurement Target: "Tyrosinase (Homo sapiens)"
  pIC50: 4.07

Please find the next compound below.
Entry `O=C1/C(=C/c2ccc(=O)n(O)c2)Oc2cc(O)cc(O)c21` , system Tyrosinase (Homo sapiens): what pIC50 was measured?
3.92

Source of measurements: ChEMBL document CHEMBL3870357
